Entries with their measured Kd, system hSSTR-2 (Homo sapiens, UniProt P30874):
Bridge positions count the residues as written; N and C are the ends. Square brackets hold non-standard residues; d marks the D form. Peptide text beside a SMILES is read from it. NMeT = CN[C@H](C(=O)O)[C@@H](C)O; NMeK = CN[C@@H](CCCCN)C(=O)O
Write the value in nM as a bare number.

C[C@@H](O)[C@H](NC(=O)[C@@H]1CSSC[C@H](NC(=O)[C@@H](N)Cc2ccc(O)cc2)C(=O)N[C@@H](Cc2ccccc2)C(=O)N[C@H](Cc2c[nH]c3ccccc23)C(=O)N(C)[C@@H](CCCCN)C(=O)N[C@@H]([C@@H](C)O)C(=O)N1)C(N)=O [Example 14] (H-YCF[dW][NMeK]TCT-NH2; disulfide 2-7; N-terminus assumed) :: 14.2
C[C@@H](O)[C@@H]1NC(=O)[C@H](CCCCN)NC(=O)[C@@H](Cc2c[nH]c3ccccc23)NC(=O)[C@H](Cc2ccccc2)NC(=O)[C@@H](NC(=O)[C@@H](N)Cc2ccc(O)cc2)CSSC[C@@H](C(=O)N(C)[C@H](C(N)=O)[C@@H](C)O)NC1=O [Example 17] (H-YCF[dW]KTC[NMeT]-NH2; disulfide 2-7; N-terminus assumed) :: 26.2

Switching to the query record.
Exercise: Lab request: please report Kd under test system hSSTR-2 (Homo sapiens, UniProt P30874) for CN[C@H](Cc1ccccc1)C(=O)N[C@H]1CSSC[C@@H](C(=O)N[C@H](C(N)=O)[C@@H](C)O)NC(=O)[C@H]([C@@H](C)O)NC(=O)[C@H](CCCCN)NC(=O)[C@@H](Cc2c[nH]c3ccccc23)NC(=O)[C@H](Cc2ccccc2)NC1=O [Example 1]
Solution: 1.03

---

measurement-target: hSSTR-1 (Homo sapiens, UniProt P30872)
Sequence (P30872 whole entry): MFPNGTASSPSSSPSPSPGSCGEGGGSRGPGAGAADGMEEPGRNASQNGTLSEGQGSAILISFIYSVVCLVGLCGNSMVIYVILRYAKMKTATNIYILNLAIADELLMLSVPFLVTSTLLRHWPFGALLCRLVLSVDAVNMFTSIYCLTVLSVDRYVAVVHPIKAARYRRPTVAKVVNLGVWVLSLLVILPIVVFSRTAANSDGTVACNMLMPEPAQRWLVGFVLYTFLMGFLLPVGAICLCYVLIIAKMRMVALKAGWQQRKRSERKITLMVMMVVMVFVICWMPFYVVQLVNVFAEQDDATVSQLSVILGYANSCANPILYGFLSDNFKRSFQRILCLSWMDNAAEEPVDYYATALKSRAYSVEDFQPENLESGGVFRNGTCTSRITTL
Bridge positions count the residues as written; N and C are the ends. Square brackets hold non-standard residues; d marks the D form. Peptide text beside a SMILES is read from it. NMeF = CN[C@@H](Cc1ccccc1)C(=O)O; NMeK = CN[C@@H](CCCCN)C(=O)O; NMeC = CN[C@@H](CS)C(=O)O
Note to self: Kd under 1000 nM means Met, ties and anything higher get Not met.

The examples below pair each entry with its known result.
C[C@@H](O)[C@H](NC(=O)[C@@H]1CSSC[C@H](NC(=O)[C@@H](N)Cc2ccc(O)cc2)C(=O)N[C@@H](Cc2ccccc2)C(=O)N[C@H](Cc2c[nH]c3ccccc23)C(=O)N[C@@H](CCCCN)C(=O)N[C@@H]([C@@H](C)O)C(=O)N1C)C(N)=O [Example 16] (H-YCF[dW]KT[NMeC]T-NH2; disulfide 2-7; N-terminus assumed) :: Not met
C[C@@H](O)[C@H](NC(=O)[C@@H]1CSSC[C@H](NC(=O)[C@H](N)Cc2ccccc2)C(=O)N[C@@H](Cc2ccccc2)C(=O)N[C@H](Cc2c[nH]c3ccccc23)C(=O)N[C@@H](CCCCN)C(=O)N[C@@H]([C@@H](C)O)C(=O)N1)C(N)=O :: Met
C[C@@H](O)[C@H](NC(=O)[C@@H]1CSSC[C@H](NC(=O)[C@@H](N)Cc2ccc(O)cc2)C(=O)N(C)[C@@H](Cc2ccccc2)C(=O)N[C@H](Cc2c[nH]c3ccccc23)C(=O)N[C@@H](CCCCN)C(=O)N[C@@H]([C@@H](C)O)C(=O)N1)C(N)=O [Example 12] (H-YC[NMeF][dW]KTCT-NH2; disulfide 2-7; N-terminus assumed) :: Met

# input for lookup
Exercise: Quick check: does C[C@@H](O)[C@H](NC(=O)[C@@H]1CSSC[C@H](NC(=O)[C@@H](N)Cc2ccc(O)cc2)C(=O)N[C@@H](Cc2ccccc2)C(=O)N[C@H](Cc2c[nH]c3ccccc23)C(=O)N(C)[C@@H](CCCCN)C(=O)N[C@@H]([C@@H](C)O)C(=O)N1)C(N)=O [Example 14] (H-YCF[dW][NMeK]TCT-NH2; disulfide 2-7; N-terminus assumed) have Kd under 1000 nM?
Solution: Met

---

Bridge positions count the residues as written; N and C are the ends. Square brackets hold non-standard residues; d marks the D form. Peptide text beside a SMILES is read from it. dNMeW = CN[C@H](Cc1c[nH]c2ccccc12)C(=O)O; NMeY = CN[C@@H](Cc1ccc(O)cc1)C(=O)O; NMeT = CN[C@H](C(=O)O)[C@@H](C)O
Below are Kd values measured for hSSTR-1 (Homo sapiens, UniProt P30872).

Guide cases for Kd, answers given:
CN[C@H](Cc1ccccc1)C(=O)N[C@H]1CSSC[C@@H](C(=O)N[C@H](C(N)=O)[C@@H](C)O)NC(=O)[C@H]([C@@H](C)O)NC(=O)[C@H](CCCCN)NC(=O)[C@@H](Cc2c[nH]c3ccccc23)NC(=O)[C@H](Cc2ccccc2)NC1=O :: 316 nM
C[C@@H](O)[C@H](NC(=O)[C@@H]1CSSC[C@H](NC(=O)[C@H](N)Cc2ccccc2)C(=O)N[C@@H](Cc2ccccc2)C(=O)N[C@H](Cc2c[nH]c3ccccc23)C(=O)N[C@@H](CCCCN)C(=O)N[C@@H]([C@@H](C)O)C(=O)N1C)C(N)=O :: 622 nM
CN[C@@H](Cc1ccc(O)cc1)C(=O)N[C@H]1CSSC[C@@H](C(=O)N[C@H](C(N)=O)[C@@H](C)O)NC(=O)[C@H]([C@@H](C)O)NC(=O)[C@H](CCCCN)NC(=O)[C@@H](Cc2c[nH]c3ccccc23)NC(=O)[C@H](Cc2ccccc2)NC1=O [Example 10] (H-[NMeY]CF[dW]KTCT-NH2; disulfide 2-7; N-terminus assumed) :: 811 nM
C[C@@H](O)[C@@H]1NC(=O)[C@H](CCCCN)NC(=O)[C@@H](Cc2c[nH]c3ccccc23)NC(=O)[C@H](Cc2ccccc2)NC(=O)[C@@H](NC(=O)[C@H](N)Cc2ccccc2)CSSC[C@@H](C(=O)N(C)[C@H](C(N)=O)[C@@H](C)O)NC1=O :: > 1000 nM
C[C@@H](O)[C@H](NC(=O)[C@@H]1CSSC[C@H](NC(=O)[C@@H](N)Cc2ccc(O)cc2)C(=O)N[C@@H](Cc2ccccc2)C(=O)N[C@H](Cc2c[nH]c3ccccc23)C(=O)N[C@@H](CCCCN)C(=O)N(C)[C@@H]([C@@H](C)O)C(=O)N1)C(N)=O [Example 15] (H-YCF[dW]K[NMeT]CT-NH2; disulfide 2-7; N-terminus assumed) :: 1000 nM

Exercise: Consider the molecule C[C@@H](O)[C@H](NC(=O)[C@@H]1CSSC[C@H](NC(=O)[C@@H](N)Cc2ccc(O)cc2)C(=O)N[C@@H](Cc2ccccc2)C(=O)N(C)[C@H](Cc2c[nH]c3ccccc23)C(=O)N[C@@H](CCCCN)C(=O)N[C@@H]([C@@H](C)O)C(=O)N1)C(N)=O [Example 13] (H-YCF[dNMeW]KTCT-NH2; disulfide 2-7; N-terminus assumed) and give its measured Kd.
Solution: 1000 nM

Exercise: Also, C[C@@H](O)[C@@H]1NC(=O)[C@H](CCCCN)NC(=O)[C@@H](Cc2c[nH]c3ccccc23)NC(=O)[C@H](Cc2ccccc2)NC(=O)[C@@H](NC(=O)[C@@H](N)Cc2ccc(O)cc2)CSSC[C@@H](C(=O)N(C)[C@H](C(N)=O)[C@@H](C)O)NC1=O [Example 17] (H-YCF[dW]KTC[NMeT]-NH2; disulfide 2-7; N-terminus assumed) please.
Solution: 611 nM

Exercise: What do you have for C[C@@H](O)[C@H](NC(=O)[C@@H]1CSSC[C@H](NC(=O)[C@@H](N)Cc2ccc(O)cc2)C(=O)N[C@@H](Cc2ccccc2)C(=O)N[C@H](Cc2c[nH]c3ccccc23)C(=O)N[C@@H](CCCCN)C(=O)N[C@@H]([C@@H](C)O)C(=O)N1)C(N)=O [Example 18] (H-YCF[dW]KTCT-NH2; disulfide 2-7; N-terminus assumed) ?
Solution: 1000 nM
